FYI, the data here is from patent US8735388B2.

Biological target: Muscarine M1 (GPCR-A-MA-ACH M1) (Homo sapiens)
Construct: expressed in transfected cells; host or cells: CHO cells
Sequence (P11229 1-460): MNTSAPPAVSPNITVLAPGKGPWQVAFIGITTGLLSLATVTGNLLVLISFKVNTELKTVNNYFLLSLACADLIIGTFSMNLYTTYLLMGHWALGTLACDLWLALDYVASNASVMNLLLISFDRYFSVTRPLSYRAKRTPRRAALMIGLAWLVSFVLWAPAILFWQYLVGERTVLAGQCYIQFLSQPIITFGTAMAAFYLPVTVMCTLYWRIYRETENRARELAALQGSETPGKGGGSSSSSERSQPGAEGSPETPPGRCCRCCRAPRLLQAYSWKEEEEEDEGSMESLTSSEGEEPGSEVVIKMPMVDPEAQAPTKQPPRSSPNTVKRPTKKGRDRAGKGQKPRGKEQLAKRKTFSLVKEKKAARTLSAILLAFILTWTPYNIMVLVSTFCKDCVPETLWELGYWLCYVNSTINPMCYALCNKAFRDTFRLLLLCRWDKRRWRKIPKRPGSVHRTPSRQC
Assay: Muscarine M1 cell-based functional assay (CHO cells, Ca2+ - FLIPR Fluorimetry)
Conditions: human M1, CHO cells; agonist mode, reference agonist acetylcholine; read-out: Cell funct. Musc. M1 Agonism pEC50 (converted)
Threshold-based label: EC50 under 80 nM gives T, EC50 not under 80 nM gives F.

For orientation, consider the following solved cases.
COMPOUND	LABEL
CCOCCSc1c[nH]nc1C1=CCCN(C)C1 [Compound 22O]	T
COCCOCCSc1c[nH]nc1C1=CCCN(C)C1 [Compound 22P]	F
CN1CCC=C(c2n[nH]cc2SCCCCCSc2c[nH]nc2C2=CCCN(C)C2)C1 [Compound 22C]	F

Challenge: Check if EC50 falls below 80 nM for CCCCCCSc1c[nH]nc1C1=CCCN(C)C1 [Compound 22H] .
Response given: F

Challenge: Could you do the same for CCCCCSc1nc[nH]c1C1=CCCN(C)C1 [Compound 76A] , please?
Response given: F

Challenge: Could you do the same for CCCCCCC=Cc1c[nH]nc1C1=CCCN(C)C1 [Compound 47C] , please?
Response given: F

Challenge: Could you do the same for CCCCCC#Cc1conc1C1=CCCN(C)C1 [Compound 70A] , please?
Response given: F

Challenge: Could you do the same for C=CCCOc1c[nH]nc1C1=CCCN(C)C1 [Compound 33D] , please?
Response given: F

Challenge: Could you do the same for CCCCSc1c[nH]nc1[C@@H]1CN2CCC[C@H]1C2 (relative stereo) [Compound 60B] , please?
Response given: F

Challenge: Could you do the same for CCCCCOc1c[nH]nc1C1=CCCN(C)C1 [Compound 33G] , please?
Response given: T

Challenge: Could you do the same for CN1CCC=C(c2n[nH]cc2SCCCc2ccccc2)C1 [Compound 22I] , please?
Response given: F

Challenge: Could you do the same for CCCCCCCOc1c[nH]nc1C1=CCCN(C)C1 [Compound 33E] , please?
Response given: F

Challenge: Could you do the same for CCCCCSc1c[nH]nc1C1=CCCN(C)C1 [Compound 22G] , please?
Response given: T

Challenge: Could you do the same for CN1CCC=C(c2n[nH]cc2OCCCc2ccccc2)C1 [Compound 33A] , please?
Response given: F

Challenge: Could you do the same for CCCCCCC=Cc1conc1C1=CCCN(C)C1 [Compound 68B] , please?
Response given: F

Challenge: Could you do the same for CCCCC=Cc1conc1C1=CCCN(C)C1 [Compound 68A] , please?
Response given: F

Challenge: Could you do the same for C=CCCCOc1c[nH]nc1C1=CCCN(C)C1 [Compound 33F] , please?
Response given: T

Challenge: Could you do the same for CN1CCC=C(c2n[nH]cc2C#CCCCC2CCCCC2)C1 [Compound 45E] , please?
Response given: F

Challenge: Could you do the same for CN1CCC=C(c2n[nH]cc2SCC=Cc2ccccc2)C1 [Compound 22K] , please?
Response given: F

Challenge: Could you do the same for CN1CCC=C(c2n[nH]cc2C#CCCCc2ccccc2)C1 [Compound 45D] , please?
Response given: F

Challenge: Could you do the same for CN1CCC=C(c2n[nH]cc2SCCC=C(F)F)C1 [Compound 22J] , please?
Response given: T
